src = patent WO2016008851A1

For each record, write down the corresponding IC90, rec. human IL-1 B, HEK blue.
# System Name: recombinant human IL-1B (human, UniProt P01584 117-269)
# Procedure Summary: cell-based or functional assay
State the answer as a number, implicitly in nM.

// query IC90, rec. human IL-1 B, HEK blue value for entry Antibody B3 (antibody, V domains shown) VH: EVQLVQSGAEVKKPGASVKVSCKASGFSFTGYYMHWVRQAPGQGLEWVGLIIPHNDYTVNNQKFKGRVTMTRDTSTSTAYMELSSLRSEDTAVYYCARSDYYGAMDYWGQGTLVTVSS VL: EIVMTQSPATLSVSPGERATLSCRASQNIGTSIHWYQQKPGQAPRLLIKYASDSVYGIPARFSGSGSGTEFTLTISSLQSEDIAVYYCQQGASWPPFTFGQGTKLEIK
0.257

// query IC90, rec. human IL-1 B, HEK blue value for entry Antibody A1 (antibody, V domains shown) VH: QVQLVQSGAEVKKPGASVKVSCKATGYTFTNYWIAWVKQAPGQGLEWMGSIFPGGDYTNYNEKFKGKVTMTRDTSTSTSYMELSSLRSEDTAVYYCARPYYSNYGHFDYWGQGTLVTVSS VL: EIVLTQSPATLSLSPGERATLSCRASESVDNSGIGFMNWYQQKPGQAPKLLIYAASNQGSGIPARFSGSGSGTDFTLTISRLEPEDFAMYYCQQNKELPWTFGGGTKLEIK
0.329

// query IC90, rec. human IL-1 B, HEK blue value for entry Antibody A3 (antibody, V domains shown) VH: QVQLVQSGAEVKKPGASVKVSCKATGYTFTDYWIAWVRQAPGQGLEWMGSIFPGGDYTNYNEKFKGRVTMTRDTSTSTSYMELSSLRSEDTAIYYCARPYYSNYGHFDYWGQGTLVTVSS VL: EIILTQFPATLSLSPGERATISCRASESVDNSGIGFMNWYQQKPGQAPRLLIYAASNQGSGIPARFSGSGSGTDFTLTISRLEPEDFAVYYCQQNKELPWTFGQGTKLEIK
0.34

// query IC90, rec. human IL-1 B, HEK blue value for entry Antibody A4 (antibody, V domains shown) VH: QVQLVQSGAEVKKPGASVKVSCKATGYTFTDYWIAWVRQAPGQGLEWMGSIFPGGDYTNYNEKFKGRVTMTRDTSTSTSYMELSSLRSEDTAVYYCARPYYSNYGHFDYWGQGTLVTVSS VL: EIVLTQSPATLSLSPGERATLSCRASESVDNSGIGFMNWYQQKPGQAPRLLIYAASNQGSGIPARFSGSGSGTDFTLTISRLEPEDFAVYYCQQNKELPWTFGQGTKLEIK
0.495
